measured.target: Histone deacetylase 4 (Homo sapiens, UniProt P56524)
Sequence (P56524 whole entry, the tested form may be a part): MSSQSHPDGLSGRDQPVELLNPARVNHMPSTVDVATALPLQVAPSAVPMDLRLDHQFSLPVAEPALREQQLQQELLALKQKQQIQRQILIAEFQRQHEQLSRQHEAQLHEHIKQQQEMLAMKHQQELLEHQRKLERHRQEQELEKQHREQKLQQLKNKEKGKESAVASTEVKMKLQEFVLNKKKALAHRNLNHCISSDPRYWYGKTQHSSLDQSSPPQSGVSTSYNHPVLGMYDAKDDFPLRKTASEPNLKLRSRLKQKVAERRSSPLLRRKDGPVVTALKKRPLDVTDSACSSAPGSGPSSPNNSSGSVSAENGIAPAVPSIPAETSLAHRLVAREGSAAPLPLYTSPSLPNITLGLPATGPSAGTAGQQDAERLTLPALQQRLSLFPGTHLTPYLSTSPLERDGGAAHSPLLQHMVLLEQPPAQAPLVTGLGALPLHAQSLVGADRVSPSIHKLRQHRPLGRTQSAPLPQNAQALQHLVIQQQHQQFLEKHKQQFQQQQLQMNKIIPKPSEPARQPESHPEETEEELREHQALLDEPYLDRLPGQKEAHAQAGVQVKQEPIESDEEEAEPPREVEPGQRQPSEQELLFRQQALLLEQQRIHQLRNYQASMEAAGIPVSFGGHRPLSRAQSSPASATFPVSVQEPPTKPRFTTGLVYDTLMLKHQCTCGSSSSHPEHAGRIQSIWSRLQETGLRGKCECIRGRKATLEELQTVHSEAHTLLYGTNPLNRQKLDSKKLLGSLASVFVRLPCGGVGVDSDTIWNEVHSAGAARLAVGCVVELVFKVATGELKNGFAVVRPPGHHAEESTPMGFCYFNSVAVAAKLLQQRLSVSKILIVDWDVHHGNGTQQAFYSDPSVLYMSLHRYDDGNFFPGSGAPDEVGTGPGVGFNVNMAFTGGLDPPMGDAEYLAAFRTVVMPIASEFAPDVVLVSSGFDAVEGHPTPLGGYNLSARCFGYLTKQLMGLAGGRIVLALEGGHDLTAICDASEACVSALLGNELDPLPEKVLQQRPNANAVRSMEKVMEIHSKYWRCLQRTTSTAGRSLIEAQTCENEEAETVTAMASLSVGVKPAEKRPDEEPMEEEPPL
test.protocol: Inhibition of N-terminal GST/C-terminal His-tagged recombinant human HDAC4 (648 to 1057 residues) expressed in baculovirus infected Sf9 insect cells using Boc-Lys(TFA)-AMC as substrate preincubated for 5 mins followed by substrate addition measured after 30 mins by fluorescence assay
pIC50: −log10 of the molar value.
measured.attribute: pIC50

query.smiles: COc1cc2ccn(CCOc3cccc(NC(=O)CCCCCCC(=O)NO)c3)c2c(OC)c1OC
pIC50: < 5.00

// moving on: another record for pIC50
Challenge: Give the reported value of pIC50 for this record: "COc1cc2ccn(CCCCOc3cccc(NC(=O)CCCCCCC(=O)NO)c3)c2c(OC)c1OC"
Response given: < 5.00

====

System: PC-3
test.protocol: Cytotoxicity against human PC3 cells assessed as growth inhibition after 48 hrs by SRB assay
Type: functional, cell-based
condition.set: PC-3, 48 h
# pIC50 annotations
pIC50 (log units): -log10 of the concentration in mol/L.

Use the examples below as a reference point.
query.smiles: COc1cc2ccn(CCCOc3ccccc3NC(=O)CCCCCCC(=O)NO)c2c(OC)c1OC
numeric.value: 5.41
--
query.smiles: COc1cc2ccn(CCOc3ccccc3NC(=O)CCCCCCC(=O)NO)c2c(OC)c1OC
numeric.value: 5.25
--
query.smiles: COc1cc2ccn(CCOc3ccc(NC(=O)CCCCCCC(=O)NO)cc3)c2c(OC)c1OC
numeric.value: 5.36
--
query.smiles: COc1cc2ccn(CCCCOc3cccc(NC(=O)CCCCCCC(=O)NO)c3)c2c(OC)c1OC
numeric.value: 5.68
--
query.smiles: COc1cc2ccn(CCCCOc3ccccc3NC(=O)CCCCCCC(=O)NO)c2c(OC)c1OC
numeric.value: 5.62

Challenge: Give the reported value of pIC50 for this record: "COc1cccc2ccn(CCOc3cccc(NC(=O)CCCCCCC(=O)NO)c3)c12"
Response given: 5.85

Challenge: Give the reported value of pIC50 for this record: "COc1cc2ccn(CCCOc3cccc(NC(=O)CCCCCCC(=O)NO)c3)c2c(OC)c1OC"
Response given: 5.57

Challenge: Give the reported value of pIC50 for this record: "COc1cc2ccn(CCCCOc3ccc(NC(=O)CCCCCCC(=O)NO)cc3)c2c(OC)c1OC"
Response given: 5.11

Challenge: Give the reported value of pIC50 for this record: "COc1cc2ccn(CCCOc3ccc(NC(=O)CCCCCCC(=O)NO)cc3)c2c(OC)c1OC"
Response given: 5.16

Challenge: Give the reported value of pIC50 for this record: "COc1ccc2ccn(CCOc3cccc(NC(=O)CCCCCCC(=O)NO)c3)c2c1"
Response given: 5.74

Challenge: Give the reported value of pIC50 for this record: "COc1cc2ccn(CCOc3cccc(NC(=O)CCCCCCC(=O)NO)c3)c2c(OC)c1OC"
Response given: 5.89

====

measured.target: Histone deacetylase 3/Nuclear receptor corepressor 2 (HDAC3/NCoR2) (Homo sapiens, UniProt O15379)
Sequence (O15379 whole entry): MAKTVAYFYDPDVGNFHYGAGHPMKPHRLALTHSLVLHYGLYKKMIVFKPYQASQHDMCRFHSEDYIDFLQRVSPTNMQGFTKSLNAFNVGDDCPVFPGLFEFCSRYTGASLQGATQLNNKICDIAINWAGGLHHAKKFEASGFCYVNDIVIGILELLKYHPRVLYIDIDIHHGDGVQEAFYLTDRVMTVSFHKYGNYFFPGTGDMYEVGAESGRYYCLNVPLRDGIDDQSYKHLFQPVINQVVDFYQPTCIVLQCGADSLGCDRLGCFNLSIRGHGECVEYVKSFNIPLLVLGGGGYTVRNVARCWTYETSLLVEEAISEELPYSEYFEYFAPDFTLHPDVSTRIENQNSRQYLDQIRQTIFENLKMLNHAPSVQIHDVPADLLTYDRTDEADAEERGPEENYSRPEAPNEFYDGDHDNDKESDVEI
Sequence (Q9Y618 whole entry, further chain): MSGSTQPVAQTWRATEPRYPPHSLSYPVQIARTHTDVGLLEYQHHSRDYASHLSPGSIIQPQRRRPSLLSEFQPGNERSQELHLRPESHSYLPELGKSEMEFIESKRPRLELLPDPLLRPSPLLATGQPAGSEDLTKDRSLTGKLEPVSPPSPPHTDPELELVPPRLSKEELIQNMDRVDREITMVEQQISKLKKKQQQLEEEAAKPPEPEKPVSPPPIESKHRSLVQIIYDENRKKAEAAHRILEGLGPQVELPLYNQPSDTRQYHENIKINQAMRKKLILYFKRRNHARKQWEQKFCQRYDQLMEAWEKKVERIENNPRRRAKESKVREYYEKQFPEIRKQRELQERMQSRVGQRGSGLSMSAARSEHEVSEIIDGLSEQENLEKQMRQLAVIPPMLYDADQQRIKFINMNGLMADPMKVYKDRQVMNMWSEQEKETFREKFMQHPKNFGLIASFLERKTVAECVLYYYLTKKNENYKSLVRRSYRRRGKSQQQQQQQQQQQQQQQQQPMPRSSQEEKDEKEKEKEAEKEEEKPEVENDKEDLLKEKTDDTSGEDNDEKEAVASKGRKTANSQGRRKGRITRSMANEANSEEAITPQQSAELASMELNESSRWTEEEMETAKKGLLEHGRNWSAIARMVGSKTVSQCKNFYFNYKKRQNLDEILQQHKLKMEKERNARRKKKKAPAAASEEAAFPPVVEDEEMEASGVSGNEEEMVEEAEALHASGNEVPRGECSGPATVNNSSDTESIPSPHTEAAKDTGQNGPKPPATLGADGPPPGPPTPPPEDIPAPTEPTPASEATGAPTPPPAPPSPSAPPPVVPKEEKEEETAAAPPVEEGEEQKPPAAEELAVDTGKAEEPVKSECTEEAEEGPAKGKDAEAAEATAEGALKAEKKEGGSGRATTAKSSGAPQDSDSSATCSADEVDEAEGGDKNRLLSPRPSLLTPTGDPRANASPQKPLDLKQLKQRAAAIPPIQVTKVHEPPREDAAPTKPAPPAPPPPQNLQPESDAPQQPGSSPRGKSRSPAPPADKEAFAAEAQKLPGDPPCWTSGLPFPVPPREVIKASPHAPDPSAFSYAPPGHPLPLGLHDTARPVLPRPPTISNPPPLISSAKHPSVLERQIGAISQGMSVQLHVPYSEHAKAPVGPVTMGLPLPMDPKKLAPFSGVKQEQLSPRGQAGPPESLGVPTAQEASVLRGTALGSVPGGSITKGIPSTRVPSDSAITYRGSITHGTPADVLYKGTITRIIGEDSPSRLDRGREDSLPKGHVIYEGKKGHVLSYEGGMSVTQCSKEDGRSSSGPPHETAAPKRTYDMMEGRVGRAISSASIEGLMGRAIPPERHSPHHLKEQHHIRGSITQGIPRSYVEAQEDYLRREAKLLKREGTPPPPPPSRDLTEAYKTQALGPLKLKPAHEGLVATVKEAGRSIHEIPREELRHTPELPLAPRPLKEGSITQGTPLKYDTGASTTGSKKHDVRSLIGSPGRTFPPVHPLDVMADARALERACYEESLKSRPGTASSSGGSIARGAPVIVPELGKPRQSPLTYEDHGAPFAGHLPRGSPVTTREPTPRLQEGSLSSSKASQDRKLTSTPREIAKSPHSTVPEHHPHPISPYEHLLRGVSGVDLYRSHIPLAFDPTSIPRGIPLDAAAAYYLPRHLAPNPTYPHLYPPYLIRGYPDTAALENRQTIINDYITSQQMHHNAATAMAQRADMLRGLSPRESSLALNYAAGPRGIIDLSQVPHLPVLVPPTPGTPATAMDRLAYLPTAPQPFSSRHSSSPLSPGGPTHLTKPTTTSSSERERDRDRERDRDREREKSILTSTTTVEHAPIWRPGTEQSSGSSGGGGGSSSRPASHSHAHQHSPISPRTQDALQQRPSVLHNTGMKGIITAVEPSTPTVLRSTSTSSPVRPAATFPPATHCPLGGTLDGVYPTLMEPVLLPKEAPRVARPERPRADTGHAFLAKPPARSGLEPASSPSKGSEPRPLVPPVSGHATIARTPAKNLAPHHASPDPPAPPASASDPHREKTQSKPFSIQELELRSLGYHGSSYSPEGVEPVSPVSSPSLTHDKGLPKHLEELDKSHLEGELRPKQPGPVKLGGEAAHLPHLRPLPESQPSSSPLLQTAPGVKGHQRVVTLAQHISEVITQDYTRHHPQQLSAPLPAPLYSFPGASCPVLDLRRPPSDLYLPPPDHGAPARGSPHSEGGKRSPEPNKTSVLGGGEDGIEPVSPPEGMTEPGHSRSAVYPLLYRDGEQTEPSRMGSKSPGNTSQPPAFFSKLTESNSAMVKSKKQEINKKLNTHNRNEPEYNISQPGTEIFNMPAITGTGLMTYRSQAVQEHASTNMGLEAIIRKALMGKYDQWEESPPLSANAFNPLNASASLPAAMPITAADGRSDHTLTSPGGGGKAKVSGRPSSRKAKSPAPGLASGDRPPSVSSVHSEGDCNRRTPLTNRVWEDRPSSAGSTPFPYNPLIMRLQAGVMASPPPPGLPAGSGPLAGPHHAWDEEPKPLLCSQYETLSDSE
test.protocol: Inhibition of C-terminal His-tagged/N-terminal GST-tagged full length recombinant human HDAC3/NcoR2 expressed in baculovirus infected Sf9 insect cells using KI 177 as substrate preincubated for 5 mins followed by substrate addition measured after 30 mins by fluorescence assay
# IC50 annotations

query.smiles: COc1cc2ccn(CCOc3cccc(NC(=O)CCCCCCC(=O)NO)c3)c2c(OC)c1OC
IC50: 72.5 nM

// moving on: another record for IC50
Challenge: Give the reported value of IC50 for this record: "COc1cc2ccn(CCCCOc3cccc(NC(=O)CCCCCCC(=O)NO)c3)c2c(OC)c1OC"
Response given: 108 nM
